- Assayed Target: untagged, full-length human PTPN2 (TC45) (1-387) protein (Homo sapiens (Human))
- Sequence (P17706 other isoform, or with tags, fused parts or gaps): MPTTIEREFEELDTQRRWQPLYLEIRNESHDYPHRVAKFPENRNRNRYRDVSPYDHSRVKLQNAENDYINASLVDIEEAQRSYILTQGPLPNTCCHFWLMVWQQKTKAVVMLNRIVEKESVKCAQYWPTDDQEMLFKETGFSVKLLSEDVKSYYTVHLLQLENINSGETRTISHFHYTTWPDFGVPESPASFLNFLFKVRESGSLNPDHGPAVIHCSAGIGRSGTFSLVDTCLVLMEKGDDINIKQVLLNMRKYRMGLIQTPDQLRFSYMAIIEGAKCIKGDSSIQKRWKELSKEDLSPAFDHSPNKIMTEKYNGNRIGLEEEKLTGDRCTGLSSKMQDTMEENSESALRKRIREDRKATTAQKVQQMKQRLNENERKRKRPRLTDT
pIC50: −log10 of the molar value.
Decide by pIC50: equal to or exceeding 8 means 1.0, less means 0.0.

Query: Check if pIC50 >= 8 (inclusive). Item: NCC[C@@H]1CCc2cc(O)c(N3CC(=O)NS3(=O)=O)c(F)c2CC1 (single isomer, unassigned)
Result: 1.0

Query: Check if pIC50 >= 8 (inclusive). Item: O=C1CN(c2c(O)cc3c(c2F)CC[C@H](NCCC2CCCC2)CC3)S(=O)(=O)N1 (single isomer, unassigned)
Result: 0.0

Query: Check if pIC50 >= 8 (inclusive). Item: CC(C)CCN[C@@H]1CCCc2cc(O)c(N3CC(=O)NS3(=O)=O)c(F)c2C1 (single isomer, unassigned)
Result: 0.0

Query: Check if pIC50 >= 8 (inclusive). Item: CNC[C@H]1CCc2cc(O)c(N3CC(=O)NS3(=O)=O)c(F)c2CC1 (single isomer, unassigned)
Result: 1.0

Query: Check if pIC50 >= 8 (inclusive). Item: O=C1CN(c2c(O)cc3c(c2F)CCC(N2CCCC2)CC3)S(=O)(=O)N1 (stereo not drawn)
Result: 0.0

Query: Check if pIC50 >= 8 (inclusive). Item: CN(C)[C@H]1CCc2cc(O)c(N3CC(=O)NS3(=O)=O)c(F)c2CC1 (single isomer, unassigned)
Result: 0.0

Query: Check if pIC50 >= 8 (inclusive). Item: O=C1CN(c2c(O)cc3c(c2F)CCC(O)CC3)S(=O)(=O)N1 (stereo not drawn)
Result: 0.0

Query: Check if pIC50 >= 8 (inclusive). Item: CC(C)CCN(C)C1CCCc2cc(O)c(N3CC(=O)NS3(=O)=O)c(F)c2C1 (stereo not drawn)
Result: 0.0

Query: Check if pIC50 >= 8 (inclusive). Item: O=C1CN(c2c(O)cc3c(c2F)CC[C@@H](NCCC2CCCC2)CC3)S(=O)(=O)N1 (single isomer, unassigned)
Result: 1.0

Query: Check if pIC50 >= 8 (inclusive). Item: O=C1CN(c2c(O)cc3c(c2F)CCCCC3)S(=O)(=O)N1
Result: 0.0

Query: Check if pIC50 >= 8 (inclusive). Item: CCN[C@@H]1CCc2cc(O)c(N3CC(=O)NS3(=O)=O)c(F)c2CC1 (single isomer, unassigned)
Result: 0.0

Query: Check if pIC50 >= 8 (inclusive). Item: N[C@H]1CCc2cc(O)c(N3CC(=O)NS3(=O)=O)c(F)c2CC1 (single isomer, unassigned)
Result: 1.0

Query: Check if pIC50 >= 8 (inclusive). Item: N[C@@H]1CCc2cc(O)c(N3CC(=O)NS3(=O)=O)c(F)c2CC1 (single isomer, unassigned)
Result: 0.0

Query: Check if pIC50 >= 8 (inclusive). Item: CC(C)(C)NC1CCc2cc(O)c(N3CC(=O)NS3(=O)=O)c(F)c2CC1 (stereo not drawn)
Result: 0.0

Query: Check if pIC50 >= 8 (inclusive). Item: N#CCC1CCc2cc(O)c(N3CC(=O)NS3(=O)=O)c(F)c2CC1 (stereo not drawn)
Result: 0.0

----------
So I've got a bunch of compounds here, and I need their pIC50 values.
- Test system: murine B16F10 melanoma cell line
- Protocol Text: B16F10 IFNγ-induced cellular growth inhibition assay (xCELLigence RTCA)
- Format: cell-based
- Measurement Conditions: Mus musculus, B16-F10, 48 h; read-out: B16 IFNγ Mediated Growth Inhibition Assay: AVG IC50
pIC50: −log10 of the molar value.

Query: Give its pIC50 value. Item: O=C1CN(c2c(O)cc3c(c2F)CC[C@H](NCCC2CCCC2)CC3)S(=O)(=O)N1 (single isomer, unassigned)
Result: < 4.00

Query: Give its pIC50 value. Item: CC(C)(C)NC1CCc2cc(O)c(N3CC(=O)NS3(=O)=O)c(F)c2CC1 (stereo not drawn)
Result: < 4.00

Query: Give its pIC50 value. Item: CN(C)[C@H]1CCc2cc(O)c(N3CC(=O)NS3(=O)=O)c(F)c2CC1 (single isomer, unassigned)
Result: < 4.00

Origin of values: patent US20250129032A1
